The reported measurements were obtained from ChEMBL document CHEMBL6087460.

Each entry below carries its reported HC50 at 40 min.
Assay: Hemolytic activity in human RBC measured after 40 mins by absorbance based assay
Type: toxicity, cell-based, Erythrocyte
Details: human red blood cells
Reply with just the number (in mM).

Answered examples (5):
# Substance, HC50 at 40 min / mM
records = [
    ("H-VLGRVLGRVLGR-OH", 2),
    ("H-LGRLVLGRLV-OH", 2),
    ("H-KVLGRKVLGR-OH", 2),
    ("H-KVLKVLKVLKVLKVL-OH", 0.256),
    ("H-GRLVGRLVGRLVGRLV-OH", 2),
]

Attention now turns to another entry.
IN: Which HC50 at 40 min reading was recorded for the substance H-LGRLVLGRLVLGRLV-OH ?
OUT: 2

###

Test: Hemolytic activity in human RBC measured after 40 mins by absorbance based assay
Format: toxicity, cell-based, Erythrocyte
Details: human red blood cells
Listing of entries alongside the reported HC50 at 40 min.
Give your result in mM as a bare value.

Look over these answered cases.
# Substance, Measured property, Obs value
data = [
    ("H-GRLGRLGRLGRL-OH", "HC50 at 40 min", 2),
    ("H-RLRLRLRLRLRL-OH", "HC50 at 40 min", 0.279),
    ("H-KVKVKVKVKVKV-OH", "HC50 at 40 min", 0.118),
    ("H-KVLGKVLGKVLGKVLG-OH", "HC50 at 40 min", 2),
    ("H-KVLGRLKVLGRL-OH", "HC50 at 40 min", 2),
    ("H-LGRLLGRLLGRL-OH", "HC50 at 40 min", 2),
]

IN: Consider the substance shown here: H-KVKVKVKVKV-OH What is its recorded HC50 at 40 min?
OUT: 0.283

IN: Any idea what its HC50 at 40 min is? The substance is H-LGRLGRLGRLGRLGR-OH
OUT: 2

IN: Bench note: what HC50 at 40 min did H-KVLGKVLGKVLG-OH show?
OUT: 2

IN: Entry H-GRLVGRLVGRLV-OH has what HC50 at 40 min?
OUT: 2

IN: For the substance H-VLGRLVVLGRLV-OH , what HC50 at 40 min is on record?
OUT: 2

IN: Please report the recorded HC50 at 40 min for H-RLVRLVRLVRLVRLV-OH .
OUT: 0.232

IN: What value of measured HC50 at 40 min is listed for H-VLGRLVLGRL-OH ?
OUT: 2

###

System: Escherichia coli
Experiment: Induction of cell membrane damage in Escherichia coli ATCC 25922 at 3 times MIC incubated for 60 mins by SEM analysis
Assay type: functional, organism-based
The source made the active and inactive calls. The rule behind the calls is not given here.
Answer with one of the outcomes y for active, n for inactive

Solved cases (3 shown):
# Substance, Target or test system, Class label
data = [
    ("H-GRLGRLGRLGRLGRL-OH", "Escherichia coli", "n"),
    ("H-VLGRVLGRVLGRVLGR-OH", "Escherichia coli", "y"),
    ("H-GRLVGRLVGRLVGRLV-OH", "Escherichia coli", "y"),
]

Then there is this substance:
IN: Short answer needed: outcome of this test for H-RLVRLVRLVRLV-OH ?
OUT: y

###

Test: Retention time of compound by RP-HPLC method
Assay type: physicochemical
Measured property: Retention_time (min)
Give the value in min but do not write min after it.

// below: answered substances
# Substance, Retention_time / min
rows = [
    ("H-VLGRVLGRVLGR-OH", 15.4),
    ("H-KVLGRKVLGR-OH", 10.61),
    ("H-VLGRLVLGRL-OH", 16.21),
    ("H-LGRLGRLGRLGR-OH", 20.45),
    ("H-KVKVKVKVKVKV-OH", 10.81),
    ("H-KVKVKVKVKVKVKV-OH", 10.73),
    ("H-KVLKVLKVLKVL-OH", 19.44),
    ("H-LGRLLGRLLGRL-OH", 15.4),
]

IN: Dear colleague, I am looking for the recorded Retention_time of the following substance: H-LGRLLGRLLGRLLGRL-OH
OUT: 20.87

IN: What Retention_time value was documented for this substance, H-RLRLRLRLRLRL-OH ?
OUT: 15.99

IN: I have this substance here, H-KVLKVLKVLKVLKVL-OH , and I need its recorded Retention_time.
OUT: 20.77

IN: # get_value(readout='Retention_time', item= H-KVLGRLKVLGRL-OH )
OUT: 16.81

IN: For H-GRLGRLGRLGRLGRL-OH , what is its reported Retention_time?
OUT: 16.17

###

Test system: Bacillus subtilis
Test: Antibacterial activity against Bacillus subtilis 6633 incubated for 16 to 18 hrs by broth dilution assay
Format: functional
Conditions: time 16-18 hrs
As shown below, each of these substances has a reported MIC value.
Dear colleague, please return just the value in µM, with no unit written.

Take a look at these entries with their results.
# Substance, Obs value
data = [
    ("H-GRLVGRLVGRLVGRLV-OH", 1.8),
    ("H-KVLKVLKVLKVLKVL-OH", 3.6),
    ("H-KVKVKVKVKVKV-OH", 9.1),
]

IN: Lab note: need MIC with Bacillus subtilis for entry H-KVKVKVKVKVKVKV-OH , please look it up.
OUT: 3.8

IN: Report MIC for H-KVKVKVKVKV-OH tested on Bacillus subtilis.
OUT: 10.9

IN: Form entry - test system: Bacillus subtilis; read-out: MIC; substance: H-GRLGRLGRLGRL-OH
OUT: 18.9

IN: Please tell me: MIC of H-RLRLRLRLRLRL-OH , system Bacillus subtilis?
OUT: 3.8

IN: Quick check: MIC on Bacillus subtilis, item H-RLRLRLRLRL-OH ?
OUT: 4.6

###

Experiment: Stability in 10 percent human serum assessed as compound remaining measured after 60 mins by RP-HPLC analysis
Assay type: ADME, cell-free
Settings: 10% human serum, read-out: Stability
Measured property: remaining at 1 h (%)
Please respond with the number in % and leave the unit unwritten.

# Substance, Units, remaining at 1 h
rows = [
    ("H-KVLKVLKVLKVLKVL-OH", "%", 65),
]

// switching to the query substance
IN: Query (substance): H-RLRLRLRLRL-OH ; field requested: remaining at 1 h
OUT: 70

###

Test system: Escherichia coli
Assay: Disruption of membrane integrity in Escherichia coli ATCC 25922 by PI staining based analysis
Assay type: functional, organism-based
The source made the active and inactive calls. The rule behind the calls is not given here.
The categories you may choose from are active, inactive

Would you please look over these solved cases?
# Substance, Class label
data = [
    ("H-RLVRLVRLVRLV-OH", "active"),
    ("H-GRLGRLGRLGRLGRL-OH", "inactive"),
    ("H-RLVRLVRLVRLVRLV-OH", "active"),
    ("H-VLGRVLGRVLGRVLGR-OH", "active"),
    ("H-KVLGKVLGKVLGKVLG-OH", "active"),
]

IN: Could you check what this test reported for H-LGRLLGRLLGRL-OH ?
OUT: active

IN: Answer briefly: the call reported for H-GRLVGRLVGRLVGRLV-OH in this assay.
OUT: active

IN: # fetch the recorded call for H-KVLKVLKVLKVL-OH here
OUT: active

IN: Assay outcome for H-RLRLRLRLRL-OH : what was it?
OUT: active

###

Tested on: Bacillus subtilis
Experiment: Antibacterial activity against Bacillus subtilis 6633 incubated for 16 to 18 hrs by broth dilution assay
Format: functional
Settings: time 16-18 hrs
MIC overview

# Substance, MIC
data = [
    ("H-LGRLVLGRLVLGRLV-OH", "> 122 µM"),
    ("H-KVLGKVLGKVLG-OH", "> 165 µM"),
    ("H-KVLGRLKVLGRL-OH", "> 147 µM"),
    ("H-VLGRLVVLGRLV-OH", "> 155 µM"),
    ("H-KVLGRKVLGRKVLGR-OH", "> 119 µM"),
]

With those in mind, consider the next substance.
IN: Value lookup for MIC; key = H-VLGRLVLGRL-OH
OUT: > 183 µM

###

This listing pairs substances with measured HC50 at 40 min.
Experiment: Hemolytic activity in human RBC measured after 40 mins by absorbance based assay
Format: toxicity, cell-based, Erythrocyte
Settings: human red blood cells
Phrase the answer as number then unit, nothing more needed.

Below are worked cases with known answers.
# Substance, HC50 at 40 min
records = [
    ("H-KVKVKVKVKVKVKV-OH", "0.062 mM"),
    ("H-GRLGRLGRLGRLGRL-OH", "2 mM"),
    ("H-KVLGRKVLGRKVLGR-OH", "2 mM"),
    ("H-KVLKVLKVLKVL-OH", "2 mM"),
    ("H-LGRLGRLGRLGR-OH", "2 mM"),
]

IN: Which HC50 at 40 min is reported for this substance? H-LGRLLGRLLGRLLGRL-OH
OUT: 0.051 mM

IN: Requested field: HC50 at 40 min. Item: H-RLRLRLRLRL-OH
OUT: 1.82 mM

IN: Param item = H-RLVRLVRLVRLV-OH ; retrieve measured HC50 at 40 min.
OUT: 2 mM

IN: // query HC50 at 40 min value for entry H-VLGRLVLGRLVLGRL-OH
OUT: 2 mM

IN: Find the recorded HC50 at 40 min belonging to H-RLRLRLRLRLRLRL-OH and report it.
OUT: 0.249 mM

IN: Please look up its HC50 at 40 min: H-VLGRVLGRVLGRVLGR-OH
OUT: 2 mM
